From: paper PMC12152147

- Tested on: OCI-AML5 cells expressing shRNAs targeting CDK1, 2, 4, 7, 9, cyclin K
- Procedure Summary: Dose response in OCI-AML5 expressing shRNAs targeting CDK1, 2, 4, 7, 9, cyclin K or control
- Assay type: cell-based, H. sapiens
- Condition Details: Homo sapiens, OCI-AML-5, OCI-AML5 expressing shRNA CDK2; read-out: IC50 shRNA CDK2
Value Kind: IC50 (nM)

// solved cases for IC50 follow
Compound | IC50 (nM)
CC(=O)N1CCN(c2ccc(CC(=O)Nc3ncc(SCc4cccnc4)s3)cc2)CC1 | 1720
O=C(Cc1coc2cc3c(cc12)CCC3)Nc1ncc(SCc2cccnc2)s1 | 2420
CC(=O)N[C@@H]1CCC[C@H](C(=O)Nc2cc(-c3cnn4c3CC(C)(C)C4)c(Cl)cn2)C1 [AZD4573, reference compound] | 1.06
O=C(Cc1ccc(-c2ccccn2)cc1)Nc1ncc(SCc2cccnc2)s1 | 142
O=C(Cc1ccc(I)cc1)Nc1ncc(SCc2cccnc2)s1 | 1280
[N-]=[N+]=Nc1ccc(CC(=O)Nc2ncc(SCc3cccnc3)s2)cc1 | 2320

I = CC(=O)Nc1ccc(CC(=O)Nc2ncc(SCc3cccnc3)s2)cc1
II = O=C(Cc1ccc(-c2ccncc2)cc1)Nc1ncc(SCc2cccnc2)s1
Exam item: Lowest IC50? choose I or II State the label of the item chosen.
Marked response: I
(I: 197 nM, II: 912 nM)

====

- Test system: primary AML specimens
- Procedure Summary: Dose-response assays in primary AML specimens (6 days, CellTiterGlo)
- Type: cell-based, human
- Condition Details: primary AML specimen 10H107; 6 days; read-out: IC50
Value Kind: pIC50
By convention, pIC50 is the negative base-10 log of a molar concentration.

Structure Smiles String | pIC50
CC[C@H](CO)Nc1nc(NCc2ccc(-c3ccccn3)cc2)c2ncn(C(C)C)c2n1 | 7.11

Next up:
Exam item: What does the data say about its pIC50? Entry: `Cc1cccc(Nc2nc(CC(=O)Nc3ncc(C)s3)cs2)n1`
Marked response: 5.85

====

Measured IC50 of individual entries
- System: primary AML specimens
- Procedure Summary: Dose-response assays in primary AML specimens (6 days, CellTiterGlo)
- Assay type: cell-based, human
- Condition Details: primary AML specimen 17H065; 6 days; read-out: IC50
Note: unit nM is implicit; provide only the numeric part.

Exam item: What does the data say about its IC50? Entry: CC[C@H](CO)Nc1nc(NCc2ccc(-c3ccccn3)cc2)c2ncn(C(C)C)c2n1 [CR8]
Marked response: 92.3

Exam item: What does the data say about its IC50? Entry: Cc1cccc(Nc2nc(CC(=O)Nc3ncc(C)s3)cs2)n1 [HQ461]
Marked response: 1420

====

- Tested on: primary AML specimens
- Procedure Summary: Dose-response assays in primary AML specimens (6 days, CellTiterGlo)
- Assay type: cell-based, human
- Condition Details: primary AML specimen 04H055; 6 days; read-out: IC50
Value Kind: pIC50
By convention, pIC50 is the negative base-10 log of a molar concentration.

Structure Smiles String | pIC50
Cc1cccc(Nc2nc(CC(=O)Nc3ncc(C)s3)cs2)n1 | 5.70

Exam item: What does the data say about its pIC50? Entry: `CC[C@H](CO)Nc1nc(NCc2ccc(-c3ccccn3)cc2)c2ncn(C(C)C)c2n1`
Marked response: 6.91

====

- System: OCI-AML5 cells expressing shRNAs targeting CDK1, 2, 4, 7, 9, cyclin K
- Procedure Summary: Dose response in OCI-AML5 expressing shRNAs targeting CDK1, 2, 4, 7, 9, cyclin K or control
- Assay type: cell-based, H. sapiens
- Condition Details: OCI-AML5 expressing shRNA CDK9; read-out: IC50 shRNA CDK9
Value Kind: IC50 (nM)

I = O=C(Cc1ccc(NC(=O)C23CC4CC(CC(C4)C2)C3)cc1)Nc1ncc(SCc2cccnc2)s1
II = CN(C)c1ccc(CC(=O)Nc2ncc(C(C)(C)C)s2)cc1
Exam item: Lowest IC50? choose I or II State the label of the item chosen.
Marked response: I

====

- Test system: OCI-AML5 cells expressing shRNAs targeting CDK1, 2, 4, 7, 9, cyclin K
- Procedure Summary: Dose response in OCI-AML5 expressing shRNAs targeting CDK1, 2, 4, 7, 9, cyclin K or control
- Assay type: cell-based, H. sapiens
- Condition Details: Homo sapiens, OCI-AML-5, 96 h, OCI-AML5, 4 days; read-out: IC50, sh CDK2
Value Kind: IC50 (nM)
Note: unit nM is implicit; provide only the numeric part.

Exam item: What does the data say about its IC50? Entry: `CN(C)c1ccc(CC(=O)Nc2ncc(SCc3cccnc3)s2)cc1`
Marked response: 842

====

- System: cyclin KeGFP
- Procedure Summary: Cyclin KeGFP reporter system (eGFP/mCherry MFI by flow cytometry);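 note: 10 μM compound for 3 h relative to DMSO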
- Type: cell-based, H. sapiens
- Condition Details: cyclin K-eGFP reporter
Value Kind: % degradation cyclin K-eGFP (%)
Note: unit % is implicit; provide only the numeric part.

// solved cases for % degradation cyclin K-eGFP follow
Structure Smiles String | % degradation cyclin K-eGFP, %
COc1ccc(CC(=O)Nc2ncc(SCc3cccnc3)s2)cc1 | 55
Cc1csc(NC(=O)Cc2ccc(N(C)C)cc2)n1 | 1
O=C(Cc1ccc(I)cc1)Nc1ncc(SCc2cccnc2)s1 | 77
O=C(Cc1ccc(NC(=O)c2ccncc2)cc1)Nc1ncc(SCc2cccnc2)s1 | 1

Next up:
Exam item: What does the data say about its % degradation cyclin K-eGFP? Entry: `CC(=O)Nc1ccc(CC(=O)Nc2ncc(SCc3cccnc3)s2)cc1`
Marked response: 67

====

- Tested on: primary AML specimens
- Procedure Summary: Dose-response assays in primary AML specimens (6 days, CellTiterGlo)
- Format: cell-based, human
- Condition Details: Homo sapiens, 144 h, primary AML specimen 13H053; 6 days; read-out: IC50
Measured pIC50 of individual entries
By convention, pIC50 is the negative base-10 log of a molar concentration.

Structure Smiles String | Quantitative Result
CC(C)(C)c1cnc(CSc2cnc(NC(=O)C3CCNCC3)s2)o1 | 6.25
CN(C)C/C=C/C(=O)Nc1ccc(C(=O)N2CCC[C@@H](Nc3ncc(Cl)c(-c4c[nH]c5ccccc45)n3)C2)cc1 | 6.80

Exam item: Which pIC50 is reported with primary AML specimens for this entry: `Cn1cc(-n2cnc3c(NCc4nc5cc(Cl)c(Cl)cc5[nH]4)nc(N4CCOCC4)nc32)cn1` ?
Marked response: 7.25

Exam item: Which pIC50 is reported with primary AML specimens for this entry: `CN(C)c1ccc(CC(=O)Nc2ncc(SCc3cccnc3)s2)cc1` ?
Marked response: 5.66

====

- Study Target: CDK9/CyclinT (Homo sapiens, UniProt P50750)
- Construct: purchased BPS Bioscience 79628
- Sequence (P50750 whole entry): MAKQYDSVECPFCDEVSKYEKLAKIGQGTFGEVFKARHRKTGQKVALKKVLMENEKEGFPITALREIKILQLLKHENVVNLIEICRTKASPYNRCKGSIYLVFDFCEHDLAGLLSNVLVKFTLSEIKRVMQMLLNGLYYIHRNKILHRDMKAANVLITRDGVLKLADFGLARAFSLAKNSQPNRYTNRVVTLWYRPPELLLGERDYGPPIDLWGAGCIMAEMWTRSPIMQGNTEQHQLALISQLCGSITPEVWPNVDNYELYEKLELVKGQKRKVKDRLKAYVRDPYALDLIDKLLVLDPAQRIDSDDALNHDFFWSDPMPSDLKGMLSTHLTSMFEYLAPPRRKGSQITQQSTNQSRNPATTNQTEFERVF
- Sequence (O60563 whole entry partner): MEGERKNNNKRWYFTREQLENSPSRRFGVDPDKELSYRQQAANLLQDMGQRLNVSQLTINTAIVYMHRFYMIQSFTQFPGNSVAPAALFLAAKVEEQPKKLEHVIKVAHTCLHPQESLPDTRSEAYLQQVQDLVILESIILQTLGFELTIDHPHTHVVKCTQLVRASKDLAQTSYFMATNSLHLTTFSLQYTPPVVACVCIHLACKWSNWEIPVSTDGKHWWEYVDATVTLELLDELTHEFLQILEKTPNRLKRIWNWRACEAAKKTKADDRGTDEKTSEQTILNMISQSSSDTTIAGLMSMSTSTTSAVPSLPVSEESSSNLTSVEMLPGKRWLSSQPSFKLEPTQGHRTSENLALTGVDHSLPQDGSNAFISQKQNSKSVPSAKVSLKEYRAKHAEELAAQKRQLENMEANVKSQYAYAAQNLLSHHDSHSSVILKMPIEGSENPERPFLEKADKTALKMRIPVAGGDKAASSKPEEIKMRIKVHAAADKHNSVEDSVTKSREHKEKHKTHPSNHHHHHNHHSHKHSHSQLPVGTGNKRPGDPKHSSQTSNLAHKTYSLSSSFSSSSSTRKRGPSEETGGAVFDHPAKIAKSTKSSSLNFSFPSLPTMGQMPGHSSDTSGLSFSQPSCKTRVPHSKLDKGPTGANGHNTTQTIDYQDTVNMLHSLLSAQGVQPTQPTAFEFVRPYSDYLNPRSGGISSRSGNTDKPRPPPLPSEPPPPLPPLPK
- Procedure Summary: CDK9/CyclinT in vitro kinase activity, single concentration 1 μM
- Format: biochemical
- Condition Details: single concentration 1 μM
Value Kind: % CDK9 inhibition (%)

Structure Smiles String | % CDK9 inhibition / %
CN(C)c1ccc(CC(=O)Nc2nncs2)cc1 | 0
CC(C)(C)OC(=O)N1CCC(C(=O)Nc2ncc(SCc3cccnc3)s2)CC1 | 40
CN(C)c1ccc(CC(=O)Nc2nc3ccccc3s2)cc1 | 10
CC(=O)Nc1ncc(SCc2cccnc2)s1 | 1
CC[C@H](CO)Nc1nc(NCc2ccc(-c3ccccn3)cc2)c2ncn(C(C)C)c2n1 | 100
Cc1cccc(Nc2nc(CC(=O)Nc3ncc(C)s3)cs2)n1 | 0
Cc1nnc(NC(=O)Cc2ccc(N(C)C)cc2)s1 | 0
O=C(Cc1ccc(NC(=O)C23CC4CC(CC(C4)C2)C3)cc1)Nc1ncc(SCc2cccnc2)s1 | 81
CN(C)c1ccc(CC(=O)Nc2ncc(C(C)(C)C)s2)cc1 | 5
CN(C)c1ccc(CC(=O)Nc2nc3ccccc3o2)cc1 | 0

A = O=C(Cc1ccc(CNC(=O)OCC2c3ccccc3-c3ccccc32)cc1)Nc1ncc(SCc2cccnc2)s1
B = Cc1csc(NC(=O)Cc2ccc(N(C)C)cc2)n1
C = O=C(Cc1ccccc1)Nc1ncc(SCc2cccnc2)s1
Exam item: Rank ascending by % CDK9 inhibition. The response must list the labels following the requested ordering.
Marked response: B, C, A

====

- Tested on: OCI-AML5 Cas9 cells (sgDDB1, sgAAVS1)
- Procedure Summary: Dose response in inducible OCI-AML5 Cas9 cells expressing sgRNAs targeting DDB1 or AAVS1
- Assay type: cell-based, H. sapiens
- Condition Details: Homo sapiens, OCI-AML-5, 96 h, sgDDB1 #2 - DOX; 4 days; read-out: S656 IC50
Value Kind: pIC50
By convention, pIC50 is the negative base-10 log of a molar concentration.

Exam item: What does the data say about its pIC50? Entry: CN(C)c1ccc(CC(=O)Nc2ncc(SCc3cccnc3)s2)cc1 [S656]
Marked response: 6.03

====

- System: primary AML specimens
- Procedure Summary: Dose-response assays in primary AML specimens (6 days, CellTiterGlo)
- Format: cell-based, human
- Condition Details: Homo sapiens, 144 h, primary AML specimen 17H065; 6 days; read-out: IC50
Value Kind: IC50 (µM)
Note: unit µM is implicit; provide only the numeric part.

Compound | IC50 / µM
CC(C)(C)c1cnc(CSc2cnc(NC(=O)C3CCNCC3)s2)o1 [SNS-032] | 2.5
CN(C)c1ccc(CC(=O)Nc2ncc(SCc3cccnc3)s2)cc1 [S656] | 1.55
Cn1cc(-n2cnc3c(NCc4nc5cc(Cl)c(Cl)cc5[nH]4)nc(N4CCOCC4)nc32)cn1 [SR4835] | 0.0591

Next up:
Exam item: Which IC50 is reported with primary AML specimens for this entry: CN(C)C/C=C/C(=O)Nc1ccc(C(=O)N2CCC[C@@H](Nc3ncc(Cl)c(-c4c[nH]c5ccccc45)n3)C2)cc1 [THZ531] ?
Marked response: 1.08
